Exercise: state measured t1/2 for each of the compounds provided.
Assay: Half life of the compound in KCl/HCl buffer at pH 2 assessed as acyclovir monophosphate formation by TLC analysis
Type: physicochemical

Given `CCCCCCNP(=O)(O)OCCOCn1cnc2c(=O)[nH]c(N)nc21.N` , state its recorded t1/2.
< 5 min

# t1/2 lookup, item `CN(C)CCNP(=O)(O)OCCOCn1cnc2c(=O)[nH]c(N)nc21.N`
< 5 min

Give its t1/2 value. Item: `CCCN(CCC)P(=O)(O)OCCOCn1cnc2c(=O)[nH]c(N)nc21.N`
< 5 min

Param item = `Nc1nc2c(ncn2COCCOP(=O)(N2CCOCC2)N2CCOCC2)c(=O)[nH]1` ; retrieve measured t1/2.
30 min

Need t1/2 of `N.Nc1nc2c(ncn2COCCOP(=O)(O)N2CCOCC2)c(=O)[nH]1` , thanks.
< 5 min

Find the recorded t1/2 belonging to `CN(C)CCCNP(=O)(O)OCCOCn1cnc2c(=O)[nH]c(N)nc21.N` and report it.
< 5 min

Fill in: t1/2 of `CCCCCCNP(=O)(NCCCCCC)OCCOCn1cnc2c(=O)[nH]c(N)nc21` is ___
5 min

Which t1/2 is listed for `Nc1nc2c(ncn2COCCOP(=O)(N2CCCC2)N2CCCC2)c(=O)[nH]1` ?
10 min

Looking for the measured t1/2 of `N.Nc1nc2c(ncn2COCCOP(=O)(O)NCCN2CCOCC2)c(=O)[nH]1` , can you help?
< 5 min

Consider the compound shown here: `Nc1nc2c(ncn2COCCOP(N)(N)=O)c(=O)[nH]1` What is its recorded t1/2?
5 min

Name the recorded t1/2 for `N.Nc1nc2c(ncn2COCCOP(=O)(O)N2CCCC2)c(=O)[nH]1` .
< 5 min

====

Assay: Half life of the compound in KCl/KOH buffer at pH 12 assessed as acyclovir and acyclovir monophosphate formation by TLC analysis
Format: physicochemical
So I've got a bunch of compounds here, and I need their t1/2 values.
Please reply with the bare figure in h and do not write the unit itself.

Quick one: t1/2 for `N.Nc1nc2c(ncn2COCCOP(=O)(O)NCCN2CCOCC2)c(=O)[nH]1` ?
48

Give its t1/2 value. Item: `CCCCCCNP(=O)(O)OCCOCn1cnc2c(=O)[nH]c(N)nc21.N`
48

Could you tell me which t1/2 is on file for `N.Nc1nc2c(ncn2COCCOP(=O)(O)N2CCCC2)c(=O)[nH]1` ?
96

State the recorded t1/2 for this entry: `CN(C)CCCNP(=O)(O)OCCOCn1cnc2c(=O)[nH]c(N)nc21.N`
48

Given the entry `CN(C)CCNP(=O)(O)OCCOCn1cnc2c(=O)[nH]c(N)nc21.N` , report its measured t1/2.
48

t1/2 lookup needed for `CCCN(CCC)P(=O)(O)OCCOCn1cnc2c(=O)[nH]c(N)nc21.N` , thanks.
96

====

Record form. Attribute: t1/2. Fill in for each entry.
Assay: Half life of the compound in KCl/KOH buffer at pH 12 assessed as acyclovir formation by TLC analysis
Assay type: physicochemical
Give a bare numeral; the unit h is implied.

Given the compound `CCCCCCNP(=O)(NCCCCCC)OCCOCn1cnc2c(=O)[nH]c(N)nc21` , what is its reported t1/2?
1

What t1/2 value was documented for this compound, `Nc1nc2c(ncn2COCCOP(=O)(N2CCOCC2)N2CCOCC2)c(=O)[nH]1` ?
18

Entry `Nc1nc2c(ncn2COCCOP(=O)(N2CCCC2)N2CCCC2)c(=O)[nH]1` : reported t1/2 = ?
3
